System: PPARg:RXRa 30nM:10nM, anti-RXR (NR concentration 30 nM, RXRa partner concentration 10 nM)
Assay details: PBM binding z-score (relative to random genomic background probes); higher = stronger binding; sequences stand for … in GC…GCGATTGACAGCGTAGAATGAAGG
Lab note: anything with PBM binding z-score at or over 3 counts as True; the rest go in False.

- Biosequence: "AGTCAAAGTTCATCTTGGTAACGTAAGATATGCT"
  Answer label: "True"
- Biosequence: "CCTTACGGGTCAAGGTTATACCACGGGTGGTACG"
  Answer label: "False"
- Biosequence: "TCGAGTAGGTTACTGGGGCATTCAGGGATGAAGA"
  Answer label: "False"
- Biosequence: "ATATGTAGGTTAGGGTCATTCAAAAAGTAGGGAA"
  Answer label: "True"
- Biosequence: "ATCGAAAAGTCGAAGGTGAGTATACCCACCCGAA"
  Answer label: "False"
- Biosequence: "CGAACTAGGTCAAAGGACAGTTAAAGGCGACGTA"
  Answer label: "True"
- Biosequence: "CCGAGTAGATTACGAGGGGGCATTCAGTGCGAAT"
  Answer label: "False"
- Biosequence: "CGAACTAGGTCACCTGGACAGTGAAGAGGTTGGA"
  Answer label: "True"
- Biosequence: "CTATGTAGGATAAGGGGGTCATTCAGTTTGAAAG"
  Answer label: "True"
- Biosequence: "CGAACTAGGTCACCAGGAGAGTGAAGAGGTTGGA"
  Answer label: "True"
- Biosequence: "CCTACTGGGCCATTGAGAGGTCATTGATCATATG"
  Answer label: "False"
- Biosequence: "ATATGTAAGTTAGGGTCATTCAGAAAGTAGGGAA"
  Answer label: "False"

This collection of values is drawn from the supplement of paper PMC6555819.
